Protocol Notes: reduction of polyQ htt aggregates in cells – imaging, exon1htt(103Q)mCFP cells, high-content imaging, primary screen (AID 483);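 note: compound exposure lasted 3 days before fixation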
Protocol Conditions: exon1htt(103Q)mCFP cell line, aggregate imaging, at 2 µM
Active and inactive are the calls of the source.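 Rule for the calls: active = visual image review flags a hit and inhibition of aggregation exceeds 20%; inconclusive = visual hit but inhibition at or below 20%; inactive = no hit on visual image review.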
Outcomes: active, inactive

# Compound, Discrete Label
rows = [
    ("Cc1cccc(NC(=O)CCN2CCN(C/C=C/c3ccccc3)CC2)c1", "inactive"),
    ("CCCCN(C)C(=O)c1ccc(CS(=O)(=O)c2ccccc2C)o1", "inactive"),
    ("O=C(CCn1c(=O)oc2ccccc21)N1CCCCCC1", "inactive"),
    ("CSc1nc(C)cc(Oc2ccc(=O)n(C)n2)n1", "inactive"),
    ("Cc1ccc(N2CCN(C(=S)c3ccc(N(C)C)cc3)CC2)cc1", "inactive"),
    ("CCCNc1nc(N2CCOCC2)nc(N2CCOCC2)n1", "inactive"),
    ("CC1(C)Cc2ccccc2C(N)=C1C#N", "active"),
    ("[N-]=[N+]=CC(=O)CC(c1ccccc1)N1C(=O)c2ccccc2C1=O (stereo unspecified)", "inactive"),
    ("COC(=O)C1C(=O)c2c([nH]c(C(=O)OCCOC(C)C)c2C)CC1C (stereo unspecified)", "inactive"),
    ("Cc1ccc(NC(=O)CN2CC(C)SC2=NC2CCCCC2)cc1 (stereo unspecified)", "inactive"),
    ("Cc1cc(C)c2c(n1)nn1c(N3CCN(c4cccc(Cl)c4)CC3)cc(C)nc21", "inactive"),
]

----------
Protocol Notes: TLR3 IRF3 reporter activation blockers – cell-based, poly I:C stimulus, luciferase, 10K MLSCN set, primary screen (AID 602277)
Protocol Conditions: HEK293-TLR3 RL24 IRF3 luciferase reporter, at 10 µM, hits give high values
Quantity Measured: inhibition (%)

# Molecule, Quantity Unit, Readout Number
records = [
    ("CCNCC(O)COCC(O)CNCC (configuration not stated)", "%", 21.4),
    ("CC(C)CNS(=O)(=O)c1ccc(CCC(=O)N2CCOCC2)cc1", "%", 21.1),
    ("CS(=O)(=O)NCCSCc1c(F)cccc1Cl", "%", 0.999),
    ("CCOC(=O)Cn1c(CN2CCN(c3cccc(Cl)c3)CC2)nc2c1c(=O)[nH]c(=O)n2C", "%", 32.5),
    ("CC1CC(NC(=O)c2cnc3n(c2=O)CCS3)CC(C)(C)C1 (configuration not stated)", "%", 38.3),
    ("CCOCCCNC(=O)c1ccc2c(c1)N(Cc1ccccc1)C(=O)CS2=O (configuration not stated)", "%", 21),
    ("COCCCNC(=O)Cn1cc2c(n1)CCC(C)C2 (configuration not stated)", "%", 12.1),
    ("COc1ccc(NC(=O)C(C)Oc2ccc(/C(C)=N\\O)cc2)cc1 (configuration not stated)", "%", 19.2),
    ("CCCCP(=O)(CCCC)c1ccccc1C(=O)O", "%", 21.9),
    ("CCn1c(=N)n(CC(O)c2ccco2)c2ccccc21 (configuration not stated)", "%", 24.1),
    ("Nc1nnnn1/N=C/c1ccccc1OCc1ccccc1", "%", 0.143),
    ("Cc1ccc(-c2noc(CN3CCN(c4ccccc4F)CC3)n2)cc1", "%", 39),
    ("COc1ccc(OCCC(=O)NCc2ccccc2)cc1", "%", 7.69),
    ("O=C1CCNc2cc3ccccc3cc21", "%", 32.3),
    ("COc1ccc(S(=O)(=O)N2CCCC(C(=O)N3CCCCCC3)C2)cc1 (configuration not stated)", "%", 10.4),
    ("COc1ccc(C2CC(=O)C(C=NCCCN3CCOCC3)=C(O)C2)cc1 (configuration not stated)", "%", 32.7),
    ("Cn1cccc1Cc1nnc(SCC(=O)NCc2ccc(F)cc2)n1-c1ccc(F)cc1", "%", 9.66),
    ("c1ccc(Nc2ccccc2Nc2ccccn2)nc1", "%", 25),
    ("CCN(Cc1cc2cc(OC)ccc2[nH]c1=O)C(=O)c1ccncc1", "%", 20.1),
    ("COc1ccc(OC)c(NC(=O)CCNS(=O)(=O)c2cccs2)c1", "%", 24.2),
    ("CCc1nnc(NC(=O)c2ccc(COc3ccc(C)cc3)o2)s1", "%", 99.8),
    ("O=C(CCn1c(=S)[nH]c2cc3c(cc2c1=O)OCO3)N1CCN(C2CCCCC2)CC1", "%", 33.1),
    ("Cn1cccc1Cc1nnc(SCC(=O)Nc2ccccc2F)n1-c1ccc(F)cc1", "%", 24.9),
    ("c1ccc2c(c1)CNc1ccccc1C2", "%", 10.2),
    ("COc1ccccc1Nc1nc(N)nc(-c2cc3ccccc3o2)n1", "%", -99.9),
    ("Cc1nc(C)c(C(=O)C2=C(O)C(=O)N(CCCn3ccnc3)C2c2ccccc2)s1 (configuration not stated)", "%", -4.54),
    ("O=C(CCCCn1c(=O)c2ccccc2n(Cc2ccc(Cl)cc2)c1=O)NCc1ccco1", "%", 33.2),
    ("N#Cc1ccc(CSc2nnc(-c3cccs3)n2-c2ccccc2)cc1", "%", 2.95),
    ("CCOC(=O)c1cc2sccc2n1Cc1ccccc1", "%", -7.29),
    ("CCCc1cc(=O)[nH]c(/N=C(\\N)Nc2ccccc2)n1", "%", 16.6),
    ("O=C(C1CCCN(S(=O)(=O)c2cnc[nH]2)C1)N1CC(=O)N(CCc2ccccc2)C(=O)C1 (configuration not stated)", "%", 20.7),
    ("O=C1CC(c2ccccc2)CC(O)=C1C=NCCN1CCOCC1 (configuration not stated)", "%", 31.4),
    ("C/C=C/COC(=O)c1[nH]c2c(c1C)C(=O)CC(c1ccco1)C2 (configuration not stated)", "%", 82.7),
    ("S=c1[nH]ncn1-c1ccccn1", "%", 8.61),
    ("CCOC(=O)C1CCCN(C(=O)c2ccc(CS(=O)(=O)c3ccc(Br)cc3)o2)C1 (configuration not stated)", "%", 25.8),
    ("COc1ccccc1NC(=O)C1=C(C)Nc2nnnn2C1c1ccccc1OC (configuration not stated)", "%", 33.5),
    ("Cc1nnc(NCCc2ccccc2)n(N)c1=O", "%", 5.29),
    ("CCOC(=O)C1CCN(c2c(N3CCCC(C(=O)OCC)C3)c(=O)c2=O)CC1 (configuration not stated)", "%", 19.7),
    ("O=C(Nc1cnn(Cc2ccc(Cl)cc2Cl)c1)c1noc2c1CCCC2", "%", -25.5),
    ("CCOC(=O)C1=C(C)N=c2s/c(=C\\c3cccn3C)c(=O)n2C1c1cccc(OC)c1OC (configuration not stated)", "%", 25.1),
    ("CCN(CC)CCNC(=O)c1ccc(N2CCCCC2)c(NS(=O)(=O)c2ccc(C)cc2)c1", "%", 13.1),
    ("Cc1cnc(C(=O)OCC(=O)Nc2ccc(Oc3ccccc3)cc2)cn1", "%", -39.7),
    ("CCOC(=O)c1oc2ccccc2c1NC(=O)c1cccc(OC)c1OC", "%", -6.33),
    ("Cc1cc(C)c(C)c(OCC(=O)NCC2CCCO2)c1 (configuration not stated)", "%", 21),
    ("Cn1cc(-c2nc3ccccc3[nH]2)c2ccccc21", "%", -51.2),
    ("Clc1cccc(Nc2c3c(nc4ncnn24)CCC3)c1", "%", 30.2),
    ("N[C@@H](Cc1ccccc1)c1nnc2sc(SCc3ccccc3)nn12", "%", 98.1),
]

----------
NADPH fluorescence slope values for the compounds below.
Target System: Voltage-gated potassium channel subunit beta-2 (Rattus norvegicus)
Protocol Notes: enhancers of rat Kvbeta2 NADPH turnover – biochemical, NADPH fluorescence, primary screen (AID 623);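 note: fluorescence intensity change per second fitted from 20 to 320 s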
Protocol Conditions: Recombinant KvBeta, NADPH fluorescence decrease slope, 10 min; at 10 µM; hits give low values

# Compound, NADPH fluorescence slope
rows = [
    ("O=C(Nc1ccc(-c2noc(-c3cccs3)n2)cc1)c1cccnc1", "2.2e-05"),
    ("Cc1ccc(S(=O)(=O)NCCN2CCOCC2)cc1C", "1.4e-07"),
    ("CC(C)c1cc(C(=O)NCc2ccco2)no1", "-2.6e-05"),
    ("O=C(CCNC(=O)c1ccc(Br)o1)NC1CCCC1", "-5e-05"),
    ("COc1ccc(OC)c(NC(=O)CS(=O)(=O)Cc2nc(-c3ccccc3C)oc2C)c1", "-1.4e-06"),
    ("CCOc1ccccc1C1NC(=O)NC(C)=C1C(=O)OC1CCCC1C (stereo unspecified)", "-5e-05"),
    ("CN(CCc1ccccn1)c1ncnc2[nH]ncc12", "-3.6e-05"),
    ("N/C(=N/O)c1nc(N2CCCCC2)nc(N2CCCCC2)n1", "8.9e-06"),
    ("N=c1c(C(=O)NCc2ccc3c(c2)OCO3)cc2c(=O)n3ccccc3nc2n1Cc1cccnc1", "3.2e-05"),
    ("CCOC(=O)CN1CC23C=CC(O2)C(C(=O)Nc2ccc(OC)cc2OC)C3C1=O (stereo unspecified)", "-1.5e-05"),
    ("CCOC(=O)Cc1csc(NC(=O)CN(C)S(=O)(=O)c2ccc3c(c2)CCC(=O)N3)n1", "-3.1e-05"),
]

Data origin: PubChem BioAssay
